- Target Under Test: Sphingosine kinase 1 (Homo sapiens, UniProt Q9NYA1)
- Sequence (Q9NYA1 whole entry): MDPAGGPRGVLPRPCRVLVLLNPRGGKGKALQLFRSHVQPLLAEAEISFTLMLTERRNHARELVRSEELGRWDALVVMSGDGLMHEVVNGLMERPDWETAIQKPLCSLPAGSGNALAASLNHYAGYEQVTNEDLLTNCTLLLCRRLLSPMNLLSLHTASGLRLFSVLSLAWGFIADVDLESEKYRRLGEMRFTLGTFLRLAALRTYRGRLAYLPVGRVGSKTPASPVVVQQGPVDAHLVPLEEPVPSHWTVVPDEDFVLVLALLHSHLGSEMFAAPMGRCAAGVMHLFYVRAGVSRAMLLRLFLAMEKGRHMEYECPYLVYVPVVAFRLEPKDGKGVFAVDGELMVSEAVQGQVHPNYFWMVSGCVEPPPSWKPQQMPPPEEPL
- Test Method Notes: Inhibition of SPHK1 in human whole-blood using C17-sphingosine as substrate assessed as reduction in C17-S1P production preincubated for 30 mins followed by substrate addition measured after 10 mins by MS analysis
pIC50: −log10 of the molar value.
The threshold is inclusive: pIC50 of exactly 8 counts as 1.0; values below receive 0.0.

OC[C@H]1CCCN1Cc1ccc(COc2cccc(C3CCCCC3)c2)cc1    1.0
O=C(Nc1cccc(OCc2ccc(CN3CCC[C@@H]3CO)cc2)c1)c1ccccc1    0.0
CC(C)c1cccc(OCc2ccc(CN3CCC[C@@H]3CO)cc2)c1    0.0
Cc1nc(-c2cccc(OCc3ccc(CN4CCC[C@@H]4CO)cc3)c2)no1    0.0
Cc1cc(CS(=O)(=O)c2ccccc2)cc(OCc2ccc(CN3CC[C@H](O)C3)cc2)c1    1.0
Cc1cc(CS(=O)(=O)c2ccccc2)cc(OCc2ccc(CN3C[C@@H](O)[C@@H](O)C3)cc2)c1    0.0

Incoming: Hi team, for O=S(=O)(Cc1cccc(OCc2ccc(CN3CCC[C@@H]3CO)cc2)c1)C1CC1 , is the recorded pIC50 at or above 8?
Outgoing: 0.0

Incoming: Check if pIC50 >= 8 (inclusive). Item: O=S(=O)(Cc1cccc(OCc2ccc(CN3CCC[C@@H]3CO)cc2)c1)c1ccccc1
Outgoing: 0.0

* * *

- Target Under Test: Sphingosine kinase 2 (Homo sapiens, UniProt Q9NRA0)
- Sequence (Q9NRA0 whole entry): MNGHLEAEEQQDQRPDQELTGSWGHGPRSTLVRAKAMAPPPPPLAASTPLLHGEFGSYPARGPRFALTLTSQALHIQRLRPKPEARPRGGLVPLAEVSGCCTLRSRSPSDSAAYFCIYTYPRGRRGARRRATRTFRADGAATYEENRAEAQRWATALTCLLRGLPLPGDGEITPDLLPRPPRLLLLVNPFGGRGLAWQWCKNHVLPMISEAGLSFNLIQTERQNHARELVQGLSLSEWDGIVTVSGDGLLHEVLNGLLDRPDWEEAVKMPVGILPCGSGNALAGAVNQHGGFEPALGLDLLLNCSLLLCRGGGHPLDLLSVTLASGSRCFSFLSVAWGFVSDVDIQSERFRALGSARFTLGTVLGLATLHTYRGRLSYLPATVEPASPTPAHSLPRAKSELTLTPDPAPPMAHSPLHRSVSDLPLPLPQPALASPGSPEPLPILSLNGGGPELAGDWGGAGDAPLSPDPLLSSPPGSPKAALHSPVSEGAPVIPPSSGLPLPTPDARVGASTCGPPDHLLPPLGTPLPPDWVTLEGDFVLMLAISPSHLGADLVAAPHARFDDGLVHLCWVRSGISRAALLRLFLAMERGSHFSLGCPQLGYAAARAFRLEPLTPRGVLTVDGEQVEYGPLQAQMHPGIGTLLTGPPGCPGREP
Recorded IC50, one value per entry.

Reference set (3 entries):
Cc1nc2ccc(-c3ccc(CN4CCC[C@@H]4CO)cc3)cc2n1C[C@@H]1CCCO1    > 100 µM
Cc1nc2ccc(-c3ccc(CN4CCC[C@H]4CO)cc3)cc2n1C[C@H]1CCCO1    > 100 µM
Cc1nc2ccc(-c3ccc(CN4CCC[C@H]4CO)cc3)cc2n1C[C@@H]1CCCO1    > 100 µM

Kindly review the next compound as well.
Incoming: Quickly give me recorded IC50 for OC[C@H]1CCCN1Cc1ccc(COc2cccc(C3CCCCC3)c2)cc1
Outgoing: < 0.0017 µM

Value source: ChEMBL document CHEMBL4007442
